Values compiled from ChEMBL document CHEMBL1201862.

System: TK-10
Assay: NCI tumour cell line growth inhibition, 48 h
Active and inactive are the calls of the source. Rule as the data show it: active = GI50 up to about 1.1 µM and inactive = higher.

| compound | GI50 |
| --- | --- |
| C=CCOc1ccc(C2(c3ccc(OCC=C)cc3)C(=O)Nc3ccccc32)cc1 | > 10 µM (inactive) |
| CN(C)/C=N/c1c2c(nc3ccccc13)CCCC2 | > 100 µM (inactive) |
| COC(=O)CCCC(=O)NC1=C(Nc2ccc(OC)cc2)C(=O)c2ccccc2C1=O | > 100 µM (inactive) |
| OCCCNCc1ccccn1 | > 100 µM (inactive) |
| CC1=NN(C(=O)CC(=O)Nc2cccc(Cl)c2)C(=O)C1/N=N/c1ccc(S(N)(=O)=O)cc1 (stereo not drawn) | > 100 µM (inactive) |
| C/C(=C/CNc1ncnc2c1ncn2CCC#N)CO | > 100 µM (inactive) |
| COc1cc(/C=C2\C(=O)N(C(=O)c3ccc(NC(C)=O)cc3)N=C2C)ccc1O | > 100 µM (inactive) |
| CC(C)(CN)SCc1ccccc1 | > 100 µM (inactive) |
| Cc1ccc2c(c1)CC1(Cc3cccc(C)c3C1=O)C2=O (stereo not drawn) | > 100 µM (inactive) |
| CCNC(=O)Nc1ccccn1 | > 100 µM (inactive) |
| O=C(Nc1cc(Cl)ccc1Cl)C(=O)C(c1cnc2ccccc2n1)[N+](=O)[O-] (stereo not drawn) | > 100 µM (inactive) |
| O=C(c1ccccc1)C1CCCCN1C(=O)c1ccccc1 (stereo not drawn) | > 100 µM (inactive) |
| CSC1=C(C(=O)Nc2ccc(C)cc2)C(N)=NC1=O | > 100 µM (inactive) |
| Cn1c(O)c(C(=O)Nc2ccc([N+](=O)[O-])cc2)c(=O)n(C)c1=S | 2.77 µM (inactive) |
| COc1ccc(C=C2C(C)=NN(c3cccc(Cl)c3)C23C(Cl)C(=O)N3c2nc3ccccc3s2)cc1 (stereo not drawn) | 26.8 µM (inactive) |
| Fc1ccc(-c2sc(-c3ccsc3)cc2Cc2ccsc2)cc1 | > 10 µM (inactive) |
| CCC1=[N+]([O-])C(C)(C)NC1(C)C | > 10 µM (inactive) |
| COc1nc(=O)n(C2CC(N=[N+]=[N-])C(CO)O2)cc1C (stereo not drawn) | > 100 µM (inactive) |
| O=C(c1no[n+]([O-])c1C(=O)c1csc2ccccc12)c1csc2ccccc12 | 1.99 µM (inactive) |
| Cc1nc2ccc(S(=O)(=O)Nc3ccccn3)cc2c(=O)n1NS(=O)(=O)c1ccccn1 | > 100 µM (inactive) |
| COC(=O)c1c2c(cc3c1CC1(Cc4cc5c(cc4C1)CCCC5)C3)CCCC2 | > 100 µM (inactive) |
| CC1(C)OC(=O)C(C#N)=C1C[n+]1ccccc1 | > 10 µM (inactive) |
| COC(=O)C1CCC(=O)N1CN(C(C)=O)c1ccccc1 (stereo not drawn) | > 100 µM (inactive) |

* * *

Test system: SK-MEL-28
Experiment: NCI tumour cell line growth inhibition, 48 h
Activity calls are given as the source filed them. No stated cut-off is given here; in the data, active = GI50 up to about 1.1 µM and inactive = higher.
Catalogue of GI50 values

| molecule | GI50 |
| --- | --- |
| c1ccc(C2=NN3CN(N2)c2ccccc2OCCCOc2ccccc23)cc1 | > 100 µM (inactive) |
| CCN/C(=N\Nc1ccc([N+](=O)[O-])cc1)P(=O)(OC(C)C)OC(C)C | 99.8 µM (inactive) |
| CC(=O)Oc1ccc(/C=C/C(=O)NCCOC(=O)/C=C/c2ccc(OC(C)=O)c(OC(C)=O)c2)cc1OC(C)=O | 34.4 µM (inactive) |
| CC1=NN(C(=O)CC(=O)Nc2cccc(Cl)c2)C(=O)C1/N=N/c1ccc(S(N)(=O)=O)cc1 (stereo not given) | > 100 µM (inactive) |
| OC(Cc1cccnc1)(c1ccccc1)c1ccccc1 | > 100 µM (inactive) |
| O=C(c1ccccc1)c1nnn(Cc2ccccc2Cn2nnc(C(=O)c3ccccc3)c2C(=O)c2ccccc2)c1C(=O)c1ccccc1 | > 100 µM (inactive) |
| C[N+]1(CCC[N+]2(C)CC3C4C=CC(CC4)C3C2)CCOCC1 (stereo not given) | > 100 µM (inactive) |
| COC(=O)CCCC(=O)NC1=C(Nc2ccc(OC)cc2)C(=O)c2ccccc2C1=O | 20.9 µM (inactive) |
| CC1=C(C(=O)Nc2ccccc2)C(c2cc(Cl)cc(Cl)c2)C(C(=O)Nc2ccccc2)=C(C)N1 | 14.2 µM (inactive) |
| COC(=O)C1CCC(=O)N1CN(C(C)=O)c1ccccc1 (stereo not given) | > 100 µM (inactive) |
| CC(C)(CN)SCc1ccccc1 | > 100 µM (inactive) |
| COc1ccc(/C=C/C(=O)c2c(-c3ccccc3)nn(C)c(=O)c2N2CCOCC2)cc1 | > 100 µM (inactive) |
| CN(C)c1ccc(C2CC(c3ccc4ccccc4c3O)=NN2c2ccc([N+](=O)[O-])cc2[N+](=O)[O-])cc1 (stereo not given) | 56 µM (inactive) |
| COC(=O)c1cc(C(=CCC[C@H]2CC[C@@]3(C)C(CCC4C3CC[C@@]3(C)C4CC[C@@H]3C(C)CCCC(C)C)C2)c2cc(Cl)c(O)c(C(=O)OC)c2)cc(Cl)c1O (stereo not given in full) | > 10 µM (inactive) |
| CCOc1ccccc1/C=C1\NC(=O)N(/C=C2\C(=O)Oc3ccccc3C2=O)C1=O | 62.4 µM (inactive) |
| CCCCC1=C(C(=O)N2CCOCC2)C2(OCCO2)C1Cl (stereo not given) | 23 µM (inactive) |
| CN(CC(=O)O)Cc1c[nH]c2ccccc12 | > 100 µM (inactive) |
| CCN(CC)CCCNc1nncc2cc3c([nH]c4ccc(OC)cc43)c(C)c12 | 15.7 µM (inactive) |
| COc1ccc(/C=N/N=C(\N)NO)c(O)c1 | > 10 µM (inactive) |
| O=c1c(Nc2ccccc2)cn(CCOc2ccccc2)c(=O)n1CCOc1ccccc1 | > 100 µM (inactive) |

* * *

Catalogue of GI50 values
System: M14
Test: NCI tumour cell line growth inhibition, 48 h
The source made the active and inactive calls. Cut-off read from the data, not from the text of the source: active = GI50 up to about 1.1 µM and inactive = higher.

| compound | system | GI50 |
| --- | --- | --- |
| COC(=O)C1Cc2c([nH]c3ccccc23)C(c2ccccc2O)N1 (stereo unspecified) | M14 | 93.8 µM (inactive) |
| Cc1nc2ccccc2c(=O)n1/N=C(\N=N\c1ccccc1Cl)c1ccccc1 | M14 | 18.1 µM (inactive) |
| Nc1ccccc1CC(O)C(=O)O (stereo unspecified) | M14 | > 100 µM (inactive) |
| NNC(=O)/C(NC(=O)c1ccccc1)=C(\N)c1ccc(Cl)cc1 | M14 | > 100 µM (inactive) |
| CC1(C)S[C@H](c2ccccc2C(=O)O)N[C@@H]1CC(=O)O | M14 | > 100 µM (inactive) |
| CCOC(=O)C1Cc2ccc(C)cc2C1=O (stereo unspecified) | M14 | > 100 µM (inactive) |
| Cc1[nH]n(-c2ccc(S(=O)(=O)O)cc2)c(=O)c1/N=N/c1ccccc1 | M14 | > 100 µM (inactive) |
| c1ccc(C2=NN3CN(N2)c2ccccc2OCCCOc2ccccc23)cc1 | M14 | > 100 µM (inactive) |
| Cc1c(C2Cc3ccccc3N2C(=O)/C=C\C(=O)O)c2ccccc2n1C (stereo unspecified) | M14 | 17.8 µM (inactive) |
| CCOC(=O)c1cnc2sc3ccc4ccccc4c3n2c1=O | M14 | 81.1 µM (inactive) |
| COC(=O)C(C)(/N=C/c1ccccc1)c1ccccc1 (stereo unspecified) | M14 | > 100 µM (inactive) |

* * *

Tested on: HOP-92
Test: NCI tumour cell line growth inhibition, 48 h
Calls of active or inactive are those of the source. Rule as the data show it: active = GI50 up to about 1.1 µM and inactive = higher. Square brackets hold non-standard residues; d marks the D form. Peptide text beside a SMILES is read from it. * marks the point of attachment. X26 = COC1=CC(=O)N(C(=O)[C@@H](O*)C(C)C)[C@H]1Cc1ccccc1; NMeL = CN[C@@H](CC(C)C)C(=O)O; Hexanoyl = CCCCCC(=O)*
Outcome codes: active, inactive

| compound | label |
| --- | --- |
| Nc1cc(N)cc(Cc2ccccc2)c1 | inactive |
| COC(=O)CCCC(=O)NC1=C(Nc2ccc(OC)cc2)C(=O)c2ccccc2C1=O | inactive |
| O=C1CSC(c2cccc([N+](=O)[O-])c2)N1c1ccc(-n2c(-c3ccccc3)nc3ccccc3c2=O)cc1 (stereo unspecified) | inactive |
| COc1ccc(C(=O)CC(=O)C(=O)Nc2ccc(C)c(C)c2)cc1 | inactive |
| CC(=O)n1nc(-c2ccccc2)n(/N=C/c2ccc([N+](=O)[O-])cc2)c1=O | inactive |
| OC(Cc1cccnc1)(c1ccccc1)c1ccccc1 | inactive |
| CCCCN1C(=O)c2c(-c3sccc3N)sc(-c3sccc3N)c2C1=O | inactive |
| CCCCCC(=O)N[C@H](C(=O)N[C@H](C(=O)N(C)[C@@H](CC(C)C)C(=O)N1CCC[C@H]1C(=O)N1CCC[C@H]1C(=O)O[C@H](C(=O)N1C(=O)C=C(OC)[C@@H]1Cc1ccccc1)C(C)C)C(C)C)C(C)C (Hexanoyl-VV[NMeL]PP-X26) | inactive |
| C=CO/N=[N+](\[O-])N(CC)CC | inactive |
| O=c1[nH]c(=O)n(CCOCP(=O)(O)O)nc1Br | inactive |
| CC[C@@H]1C[C@@H](O)[C@@H]2[C@H](O)[C@H](O)CN2C1 | inactive |
| CC[C@@]12N=C(N(C)C)C[C@]1(O)ON=C2C | inactive |
| COC(=O)C(O)P(=O)(OC)OC (stereo unspecified) | inactive |
| c1ccc2c(c1)ncn2C1CCCCO1 (stereo unspecified) | inactive |
| CCC1CN2CCc3c([nH]c4ccccc34)[C@@](C(=O)OC)(c3cc4c(cc3OC)N(C)C3C(O)(C(=O)OC)C(C(=O)OC)C5(CC)C=CCN6CCC43C65)C[C@@H](C2)[C@@H]1C(C)(C)C (stereo partly specified) | active |
| O=C1c2ccccc2N2OC3C4CCC(C4)C3C12c1ccccc1 (stereo unspecified) | inactive |
| COC1/C=C/C(C)C(C(C)C(OC)C(C)CCC(=O)C(C)C(CC(=O)O)OC)OC(=O)/C=C/C=C(\C)CC(OC)C(OC)C2=CC(=O)O[C@@H](C(C)C(OC)CC(OC)/C=C/C(C)C(O)C1)[C@H]2O (stereo partly specified) | active |
| CC(C)=CCC[C@@H](C)C1=CC(=O)C(C)=C(O)C1=O [ISOPEREZONE] | inactive |
| Cc1cn(S(=O)(=O)c2ccccc2)c2c(OCc3ccccc3)cc(NS(C)(=O)=O)cc12 | inactive |
| Nc1ccccc1.O=P(O)(OP(=O)(O)c1ccccc1)c1ccccc1 | inactive |
| COc1cc2c(cc1OC)C(SC)C(=O)N(Cc1cccc(OC)c1OC)CC2 (stereo unspecified) | active |
| C=CCOc1ccc(C2(c3ccc(OCC=C)cc3)C(=O)Nc3ccccc32)cc1 | inactive |
| CCOC(=O)C1Cc2ccc(C)cc2C1=O (stereo unspecified) | inactive |
| Nc1ccccc1CC(O)C(=O)O (stereo unspecified) | inactive |
| C=CC1(C)CC(=O)C2(O)C(C)(O1)C(OC(C)=O)C(O)C1C(C)(C)CCC(O)C12C (stereo unspecified) | inactive |
| O=c1c(C(c2ccc(C(c3c(O)oc4cc(O)ccc4c3=O)c3c(O)oc4cc(O)ccc4c3=O)cc2)c2c(O)oc3cc(O)ccc3c2=O)c(O)oc2cc(O)ccc12 | inactive |
| O=C(c1no[n+]([O-])c1C(=O)c1csc2ccccc12)c1csc2ccccc12 | inactive |
| C=CC(=O)N1C/C(=C\c2ccccc2)C(=O)/C(=C/c2ccccc2)C1 | inactive |
| CCCCCCCCCCCCNC(C)=O | inactive |
| CCC(=C(C#N)C#N)c1cc(OC)c(OC)c(OC)c1 | inactive |
| CCOP(=O)(OCC)C(Nc1cccc(F)c1)c1ccc(N(C)C)cc1 (stereo unspecified) | inactive |
| CCOC(=O)c1c(N2CCOCC2)ncn(-c2cccc(Cl)c2)c1=O | inactive |
| COC1=C2CC(C)CC(OC)[C@@H](OC(=O)CCN)[C@H](C)/C=C(\C)C(OC(N)=O)C(OC)/C=C\C=C(/C)C(=O)NC(=CC1=O)C2=O (stereo partly specified) | active |
| CCCCCCCc1c(Cl)nc(Cl)nc1Cl | inactive |
| CC(=O)Nc1ncc2c(n1)-c1ccccc1OC2c1ccccc1 (stereo unspecified) | inactive |
| CC(C)(C)OC(=O)Nc1nnc(S(N)(=O)=O)s1 | inactive |
| CC(C)(CN)SCc1ccccc1 | inactive |
| CC(C)/C(Cl)=N/OC(=O)Nc1ccc(Br)cc1 | inactive |
| COc1ccc(-c2nc(N)n(C)c2SSc2c(-c3ccc(OC)cc3)nc(N)n2C)cc1 | inactive |
| Nc1nc(Cl)c(N)c(NCC2(CO)CC(O)C2)n1 (stereo unspecified) | inactive |
| CC1=NN(c2nc(N)nc(CBr)n2)C(C)(C)C1 | active |
